system: A549; experiment: Euclidean distance of Cell Painting phenotypic profile (signed KS, 77 features) to DMSO centroid (dimensionless distance); 5 or 10 uM (library dependent); higher = stronger phenotypic change vs DMSO (phenoactivity); conditions: 48 h
Counter-ions that a name gives are not always drawn.
endpoint label: Euclidean distance

Known results for compounds:
- compound: "CC(C)Cc1ccc(C(C)C(=O)OCc2ccccn2)cc1 (stereo not drawn) [Ibuprofen piconol]"
  target under test: "A549"
  Euclidean distance: 0.595
- compound: "COC(=O)Nc1nc2cc([S+]([O-])c3ccccc3)ccc2[nH]1 (stereo not drawn) [Oxfendazole]"
  target under test: "A549"
  Euclidean distance: 0.692
- compound: "Cc1ccccc1C(OCCN(C)C)c1ccccc1 (stereo not drawn) [Orphenadrine Hydrochloride]"
  target under test: "A549"
  Euclidean distance: 1.11
- compound: "O=C1C(CC[S+]([O-])c2ccccc2)C(=O)N(c2ccccc2)N1c1ccccc1 (racemic) [(+/-)-Sulfinpyrazone]"
  target under test: "A549"
  Euclidean distance: 1.79
- compound: "Cc1cccn2c(=O)c(-c3nnn[nH]3)cnc12 [Pemirolast potassium]"
  target under test: "A549"
  Euclidean distance: 0.747
- compound: "COc1cc(CCc2cc(NC(=O)c3ccc(N4CC(C)NC(C)C4)cc3)n[nH]2)cc(OC)c1 (stereo not drawn)"
  target under test: "A549"
  Euclidean distance: 1.94
- compound: "COC(=O)/C=C/C(=O)OC [Dimethyl Fumarate]"
  target under test: "A549"
  Euclidean distance: 1.07
- compound: "CCc1c(C)[nH]c2c1C(=O)C(CN1CCOCC1)CC2 (stereo not drawn) [Molindone hydrochloride]"
  target under test: "A549"
  Euclidean distance: 0.479

Problem: I am curious: what Euclidean distance value has been reported for CNC(=O)[C@H](Cc1c[nH]c2ccccc12)NC(=O)[C@@H](CC(=O)NO)CC(C)C [Ilomastat (GM6001. Galardin)] ?
Solution: 1.06

Problem: Now try `O=c1cc(N2CCOCC2)oc2c(-c3ccccc3)cccc12` .
Solution: 1.09

Problem: Now try CC(=O)SCC(Cc1ccccc1)C(=O)NCC(=O)OCc1ccccc1 (stereo not drawn) [Racecadotril] .
Solution: 0.894

Problem: Now try `CC(C)C[C@H](NC(=O)CNC(=O)c1cc(Cl)ccc1Cl)B(O)O` .
Solution: 3.61

Problem: Now try CCOC(=O)Nc1ccc(NCc2ccc(F)cc2)nc1N [Flupirtine maleate] .
Solution: 3.24

Problem: Now try Cc1c(Cl)cccc1Nc1ncccc1C(=O)O [Clonixin] .
Solution: 1.1

Problem: Now try COC(=O)OCOc1c2n(ccc1=O)N([C@@H]1c3ccccc3SCc3c1ccc(F)c3F)[C@@H]1COCCN1C2=O [Baloxavir marboxil] .
Solution: 1.3

Problem: Now try `Cc1cc(-c2ccc(CC(=O)Nc3ccc(-c4cccnc4)cc3)cc2)ccn1` .
Solution: 1.03

Problem: Now try O=C1CCc2ccc(OCCCCN3CCN(c4cccc(Cl)c4Cl)CC3)cc2N1 [Aripiprazole] .
Solution: 0.975

Problem: Now try Cc1ccc(C(=O)c2cc(O)c(O)c([N+](=O)[O-])c2)cc1 [Tolcapone] .
Solution: 1.18

* * *

system: HEPG2; experiment: Euclidean distance of Cell Painting phenotypic profile (signed KS, 77 features) to DMSO centroid (dimensionless distance); 5 or 10 uM (library dependent); higher = stronger phenotypic change vs DMSO (phenoactivity); settings: 48 h
Classification field: satisfied = Euclidean distance at or over 0.5; not satisfied = Euclidean distance under 0.5.

Example entries begin here.
- compound: "C[C@H]1NCc2cc(-c3ccc4c(=O)c(C(=O)O)cn(C5CC5)c4c3OC(F)F)ccc21"
  category: "not satisfied"
- compound: "O=C1C(N(CO)C(=O)NCO)N(CO)C(=O)N1CO (stereo not given)"
  category: "not satisfied"
- compound: "CC(C)c1ccc(NC(=O)Cn2cnc3c2c(=O)n(C)c(=O)n3C)cc1"
  category: "satisfied"
- compound: "COC1=CC(=O)C[C@@H](C)[C@]12Oc1c(Cl)c(OC)cc(OC)c1C2=O"
  category: "satisfied"

Moving on to another compound below.
Problem: Could you please find out whether Oc1c(I)cc(I)c2cccnc12 [Diiodohydroxyquinoline] has Euclidean distance that meets 0.5 or exceeds it?
Solution: satisfied
